Test system: SF-268 CNS
protocol.notes: NCI-60 one-dose screen, 48 h (100 = growth as untreated, 0 = no growth, -100 = all killed)
measurement.conditions: 10 µM unless noted
The panel holds about 83,000 compounds, 20% with a hit somewhere; the sample as a whole holds those more often.
Friendly reminder: growth below 50% is yes (1), at or above is no (0).

Problem: Given the entry CCN(CC)CCCNCc1cc(-c2ccccc2)nc2cc(Cl)ccc12 , would its reported growth be below 50%?
Result: yes (1)

Problem: Given the entry O=C(CCC(=O)c1nc2ncccc2[nH]1)NN1C(=O)CSC1c1ccc(Cl)cc1 (stereo not given) , would its reported growth be below 50%?
Result: no (0)

Problem: Given the entry CCN(CC)CCOc1ccc(Nc2ncc3cc(-c4ccc(O)cc4)c(=O)n(C)c3n2)cc1 , would its reported growth be below 50%?
Result: yes (1)

Problem: Given the entry COc1ccc(C2C3=C(COC3=O)N(CCO)c3cc4c(cc32)OCCO4)cc1OC (stereo not given) , would its reported growth be below 50%?
Result: no (0)

Now turn to the next compound.
Problem: Given the entry COc1cc(-c2nc(NC(C)=O)sc2-c2ccnc(NCCNS(=O)(=O)c3ccccc3)n2)ccc1Cl , would its reported growth be below 50%?
Result: yes (1)

---

Test system: 786-0 renal
protocol.notes: NCI-60 one-dose screen, 48 h
measurement.conditions: 10 µM unless noted
Method: Cells are grown in 96 well plates and exposed to the test compound for 48 hours. Compounds are tested at a single concentration, which is 10^-5 M for most compounds. The reported endpoint is percent growth (GI% or GIPRCNT), where numbers from 0 - 100% represent growth inhibition, and numbers from -100% - 0 represent cell death. For example, a value of 40 represents 60% growth inhibition. A value of 0 means no net growth occurred over the course of the experiment. […]
Compounds without any hit were thinned out: in the full panel of roughly 83,000, 20% have a hit. The source made the active and inactive calls. Rule for the calls: active = growth percent below 10; inactive = the rest.
Hi! Could you answer with just one of these? true (1) = active, false (0) = inactive

Example entries and their recorded answers appear below.
Problem: For this compound, state the assay outcome: Cc1ccc(C(=O)c2ccc(CC(=O)N/N=C/c3ccc(O)cc3O)n2C)cc1
Result: false (0)

Problem: For this compound, state the assay outcome: CS(=O)(=O)Nc1cc(-c2ccc3ncnc(Nc4ccc5c(cnn5Cc5cccnc5)c4)c3c2)cnc1Cl
Result: false (0)

Problem: For this compound, state the assay outcome: O=C1Nc2ccc(F)cc2/C1=C\c1nc(-c2ccccc2F)n2ccccc12
Result: false (0)

Problem: For this compound, state the assay outcome: COc1ccc2nc(SCC(=O)Nc3ccccc3C)[nH]c2c1
Result: false (0)

Continuing:
Problem: For this compound, state the assay outcome: Cc1ccc(O)c(NC(=O)c2ccc(CNc3ccnc(C(F)(F)F)c3)cc2)c1
Result: false (0)

Problem: For this compound, state the assay outcome: C/C(=C(\c1ccc(OCCN2CCCCCC2)cc1)c1ccc(OC(=O)Cc2ccccc2)cc1)c1ccc(Cl)cc1
Result: true (1)

Problem: For this compound, state the assay outcome: O=c1oc2c(cnc3ccccc32)cc1-c1cccs1
Result: false (0)

Problem: For this compound, state the assay outcome: CC/C=C1/C(=O)C=C[C@@H]1C/C=C\CCCC(=O)OC
Result: false (0)

Problem: For this compound, state the assay outcome: O=C(Nc1cccc(NC(=O)C2CCCCC2)c1)c1ccccn1
Result: false (0)

Problem: For this compound, state the assay outcome: CC1=C(C(=O)n2c3ccccc3c3ccccc32)C(c2cccc([N+](=O)[O-])c2)C(C(=O)n2c3ccccc3c3ccccc32)=C(C)N1
Result: false (0)

Problem: For this compound, state the assay outcome: O=C(Nc1ncc(Cc2ccccc2Cl)s1)c1cccs1
Result: false (0)

Problem: For this compound, state the assay outcome: Cc1nc2sc(C(=O)Nc3ccccc3)c(N)c2cc1C(=O)/C=C/c1ccccc1
Result: true (1)

Problem: For this compound, state the assay outcome: C=C1C(=O)O[C@H]2[C@H]1CC/C(COC(=O)/C=C\C(=O)NCc1ccc(Cn3c(=O)sn(-c4ccccc4)c3=O)cc1)=C\CC[C@@]1(C)O[C@@H]21
Result: false (0)

Problem: For this compound, state the assay outcome: COc1cc(OC)cc(C2C(C#N)=C(N)Oc3c2ccc2ccc(O)cc32)c1 (centres undefined)
Result: false (0)

Problem: For this compound, state the assay outcome: COc1cc(C(=O)/C=C/c2ccc(N3CCN(C)CC3)cc2)cc(OC)c1OC
Result: false (0)

Problem: For this compound, state the assay outcome: CC(C)[C@@]12C[C@@H](OC(=O)COC(=O)c3ccccc3)[C@@](C)(O1)[C@@H]1CC[C@@H](C)[C@H]1[C@@H]2OC(=O)/C=C/c1ccccc1
Result: false (0)

Problem: For this compound, state the assay outcome: Cc1ccc(C)n1/C=C/n1c(C)ccc1C
Result: false (0)

Problem: For this compound, state the assay outcome: CC(C)CN1CC(C(=O)Nc2ccc3c(c2)-c2ccccc2C3)CC1=O (centres undefined)
Result: false (0)

Problem: For this compound, state the assay outcome: O=C(N/N=C/c1ccc(O)cc1O)c1ccc(Nc2ccnc(C(F)(F)F)c2)cc1
Result: false (0)
